From: patent US20030068675

ASSAY TARGET: ZFP SBS#915 (synthetic)
Sequence (chain, as listed by the source): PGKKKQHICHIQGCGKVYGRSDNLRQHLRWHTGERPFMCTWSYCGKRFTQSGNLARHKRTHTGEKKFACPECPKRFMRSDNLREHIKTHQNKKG
ASSAY PROTOCOL: EMSA
APPLIED CONDITIONS: tags: MBP fusion
ASSAY ENDPOINT: pKd
Numbers only, as −log10 of the molar value.

Lab note: CAGGAAAAG (dsDNA) DNA 1: CAGGAAAAG DNA 2: CTTTTCCTG gave pKd of 7.35
